The compounds listed here are annotated with their pEC50.
Target: Sphingosine 1-phosphate receptor 1 (Homo sapiens)
Sequence (P21453 whole entry): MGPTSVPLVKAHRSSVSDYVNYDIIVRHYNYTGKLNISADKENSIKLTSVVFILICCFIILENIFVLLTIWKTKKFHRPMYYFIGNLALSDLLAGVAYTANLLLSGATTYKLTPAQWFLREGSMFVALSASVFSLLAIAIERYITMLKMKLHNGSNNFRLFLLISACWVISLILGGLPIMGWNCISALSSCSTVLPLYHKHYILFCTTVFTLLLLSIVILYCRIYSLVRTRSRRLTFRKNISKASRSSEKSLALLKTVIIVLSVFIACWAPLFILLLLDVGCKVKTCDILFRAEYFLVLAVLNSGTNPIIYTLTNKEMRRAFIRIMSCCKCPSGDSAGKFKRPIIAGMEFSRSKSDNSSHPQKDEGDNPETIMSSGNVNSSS
Assay: Agonist activity at S1P1 receptor
Hey, just a heads up that pEC50 is the negative log base 10 of the concentration in molar.

// known answers, use as guide
C/N=C1\S/C(=C\c2cc(C)n(Cc3ccccc3F)c2C)C(=O)N1C = 6.60
C/N=C1\S/C(=C\c2cc(C)n(Cc3c(F)cccc3F)c2C)C(=O)N1C = 7.47
C/N=C1\S/C(=C\c2cc(C)n(-c3ccc(F)cc3)c2C)C(=O)N1C = 5.74
CC/N=C1\S/C(=C\c2cc(C)n(-c3ccc(F)cc3F)c2C)C(=O)N1CC = 6.09
CCCCCCCCc1ccc2nc([C@@H](N)COP(=O)(O)O)[nH]c2c1 = 7.68

pEC50 reading for C/N=C1\S/C(=C\c2cc(C)n(-c3ccc(F)cc3F)c2C)C(=O)N1C : 5.35

The recorded pEC50 for entry CC/N=C1\S/C(=C\c2cc(C)n(Cc3c(F)cccc3F)c2C)C(=O)N1CC equals 7.74

Notebook: C/N=C1\S/C(=C\c2cc(C)n(-c3ccccc3F)c2C)C(=O)N1C , pEC50 read as 6.09

Summary for this compound, C/N=C1\S/C(=C\c2cc(C)n(Cc3ccc(F)cc3F)c2C)C(=O)N1C : pEC50 is 6.54

###

Molecular target: Sphingosine 1-phosphate receptor 4 (Homo sapiens)
Sequence (O95977 whole entry, the tested form may be a part): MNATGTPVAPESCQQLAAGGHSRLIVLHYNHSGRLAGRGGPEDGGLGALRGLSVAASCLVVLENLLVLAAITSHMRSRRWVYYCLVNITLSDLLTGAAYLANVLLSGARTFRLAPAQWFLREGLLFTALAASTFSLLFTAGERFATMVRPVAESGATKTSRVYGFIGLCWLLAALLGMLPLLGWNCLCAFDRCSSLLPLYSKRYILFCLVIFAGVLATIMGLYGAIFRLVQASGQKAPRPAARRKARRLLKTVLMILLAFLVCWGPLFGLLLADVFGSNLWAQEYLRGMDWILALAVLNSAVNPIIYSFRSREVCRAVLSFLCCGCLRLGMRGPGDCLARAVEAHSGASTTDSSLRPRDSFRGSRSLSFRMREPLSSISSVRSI
Assay: Agonist activity at S1P4 receptor in human U2OS cells expressing VP16-GAL4 transcriptional factor and beta-arrestin/TEV protease fusion protein assessed as migration of VP16-GAL4 into nucleus by FRET based beta lactamase reporter gene assay
quantity kind: EC50 (µM)
Report as a plain number; the unit µM is understood.

A selection of reference data follows.
CC/N=C1\S/C(=C\c2cc(C)n(-c3ccccc3)c2C)C(=O)N1CC = 0.602
C/N=C1\S/C(=C\c2cc(C)n(-c3ccccc3F)c2C)C(=O)N1C = 0.205
C/N=C1\S/C(=C\c2cc(C)n(Cc3ccccc3F)c2C)C(=O)N1C = 0.072
C/N=C1/NC(=O)/C(=C/c2cc(C)n(-c3ccc(F)cc3F)c2C)S1 = 1
CC/N=C1\S/C(=C\c2cc(C)n(-c3ccc(F)cc3F)c2C)C(=O)N1CC = 0.104
Cc1cc(/C=C2\S/C(=N\c3ccccn3)NC2=O)c(C)n1-c1ccccc1F = 2.1
CCCCCCCCc1ccc2nc([C@@H](N)COP(=O)(O)O)[nH]c2c1 = 0.036
COCC/N=C1\S/C(=C\c2cc(C)n(-c3ccc(F)cc3F)c2C)C(=O)N1C = 0.056

EC50 for C/N=C1\S/C(=C\c2cc(C)n(-c3ccc(F)cc3F)c2C)C(=O)N1CCOC is 1.7

Given item C/N=C1\S/C(=C\c2cc(C)n(Cc3c(F)cccc3F)c2C)C(=O)N1C , the value recorded as its EC50 is 0.092

Query CC/N=C1\S/C(=C\c2cc(C)n(-c3ncccc3F)c2C)C(=O)N1CC yields EC50 of 5.4

The compound listed as CC/N=C1\S/C(=C\c2cc(C)n(-c3ccccc3F)c2C)C(=O)N1CC has a reported EC50 of 0.25

Note to self: EC50 recorded for C/N=C1\S/C(=C\c2cc(C)n(CCc3ccccc3)c2C)C(=O)N1C was 0.66
